# Experimental System: HLA-A*30:01
# Procedure Details: IEDB peptide-MHC binding, purified MHC/competitive/radioactivity; filed as Kd, often an IC50 or EC50 that approximates it; bounds were set here for any values at or beyond the usual limits of such assays
# Cond: source organism: Dengue virus 1 Brazil/97-11/1997
Measured Quantity: pKd
Friendly reminder that pKd comes from taking -log10 of the concentration in mol/L.

Sample answers from the record:
Sequence Chain	pKd
LRFLAIPPTA	5.50
GGMLVRNPLS	5.37
SITLATGPLT	5.41
VVRVQRPAK	7.65
KMRPMFAVG	7.83
GVYPMSIPAT	4.98

Challenge: I'd like to know its pKd. The sequence in question is KVRSNAAIG
Response given: 7.87
